System: IL-1β release from human THP1 macrophages
MEASUREMENT PROTOCOL: Two-hit (LPS then ATP) inflammasome activation model, IL-1β release from THP1 macrophages
Type: cell-based
TEST SETTINGS: Homo sapiens, THP-1, sodium decanoate with addition of 25 nanomolar Dex
pIC50: −log10 of the molar value.
PROPERTY NAME: pIC50

| MOLECULE | PROPERTY NAME | READOUT NUMBER |
| --- | --- | --- |
| CCCCCCCCCC(=O)[O-].[Na+] [Dec, sodium decanoate] | pIC50 | 4.50 |

###

System: PGE2 release from osteoarthritic human synoviocytes
MEASUREMENT PROTOCOL: IL-1β-induced PGE2 and PGD2 release from osteoarthritic-synoviocytes
Format: cell-based
TEST SETTINGS: Homo sapiens, DA alone; IL-1β 0.5 ng/mL; read-out: IC50 for PGE2 inhibition
pIC50: −log10 of the molar value.

| COMPOUND | TARGET SYSTEM | pIC50 |
| --- | --- | --- |
| CCCCCCCCCC(=O)O [DA, decanoic acid] | PGE2 release from osteoarthritic human synoviocytes | 4.71 |
